Where do these numbers come from? They come from patent US9555014B2.

- test: Phase 2a study: trough and peak plasma drug levels
- Format: in vivo, human (postmenopausal women)
- run conditions: female, human, plasma; 10 mg daily PO, Day 29, ITT, mean (SD); read-out: Mean Trough Level of Drug
Counter-ions that a name gives are not always drawn.

[
  {
    "compound": "CCNCCc1ccc(CN(CC)c2cc(OC)ccc2[C@@H]2CCc3cc(O)ccc3C2)cc1 [drug, dihydrochloride]",
    "readout units": "ng/mL",
    "concentration at 29 day": 0.34
  }
]

* * *

- test: Phase 2a study: trough and peak plasma drug levels
- Assay type: in vivo, human (postmenopausal women)
- run conditions: female, human, plasma; 10 mg daily PO, Day 15, ITT, mean (SD); read-out: Mean Trough Level of Drug
Where a name gives a salt, the structure may show the parent alone.

[
  {
    "molecule": "CCNCCc1ccc(CN(CC)c2cc(OC)ccc2[C@@H]2CCc3cc(O)ccc3C2)cc1 [drug, dihydrochloride]",
    "concentration at 15 day [ng/mL]": 0.49
  }
]

* * *

- test: Phase 2a study: trough and peak plasma drug levels
- Type: in vivo, human (postmenopausal women)
- run conditions: female, human, plasma, oral; 10 mg, derived from Table 4 (0.45 ± 0.34, Day 8); read-out: steady state trough level range (mean plus or minus one standard deviation)
Counter-ions that a name gives are not always drawn.

[
  {
    "compound": "CCNCCc1ccc(CN(CC)c2cc(OC)ccc2[C@@H]2CCc3cc(O)ccc3C2)cc1 [drug, dihydrochloride]",
    "concentration at 8 day": "0.11 to 0.79 ng/mL"
  }
]

* * *

- test: Phase 2a study: trough and peak plasma drug levels
- Assay type: in vivo, human (postmenopausal women)
- run conditions: female, human, plasma; 10 mg daily PO, Day 8, ITT, mean (SD); read-out: Mean Trough Level of Drug
Counter-ions that a name gives are not always drawn.
observation type: concentration at 8 day (ng/mL)

[
  {
    "compound": "CCNCCc1ccc(CN(CC)c2cc(OC)ccc2[C@@H]2CCc3cc(O)ccc3C2)cc1 [drug, dihydrochloride]",
    "observation type": "concentration at 8 day",
    "endpoint value": 0.45
  }
]

* * *

- test: Phase 2a study: trough and peak plasma drug levels
- Assay type: in vivo, human (postmenopausal women)
- run conditions: female, human, plasma; 50 mg daily PO, Day 15, ITT, mean (SD); read-out: Mean Trough Level of Drug
Where a name gives a salt, the structure may show the parent alone.

[
  {
    "compound": "CCNCCc1ccc(CN(CC)c2cc(OC)ccc2[C@@H]2CCc3cc(O)ccc3C2)cc1 [drug, dihydrochloride]",
    "concentration at 15 day": "3.39 ng/mL"
  }
]

* * *

- test: Phase 2a study: trough and peak plasma drug levels
- Format: in vivo, human (postmenopausal women)
- run conditions: female, human, plasma; 25 mg daily PO, Day 29, ITT, mean (SD); read-out: Mean Trough Level of Drug
Counter-ions that a name gives are not always drawn.
observation type: concentration at 29 day (ng/mL)

[
  {
    "compound": "CCNCCc1ccc(CN(CC)c2cc(OC)ccc2[C@@H]2CCc3cc(O)ccc3C2)cc1 [drug, dihydrochloride]",
    "endpoint value": 1.18
  }
]

* * *

- test: Phase 2a study: trough and peak plasma drug levels
- Type: in vivo, human (postmenopausal women)
- run conditions: female, human, plasma; 50 mg daily PO, Day 29, ITT, mean (SD); read-out: Mean Trough Level of Drug
- Text: This is a randomized, placebo-controlled, double-blind, parallel-group, Phase 2, multi-center, dose-finding study to evaluate the effects of (R)-6-(2-(ethyl(4-(2-(ethylamino)ethyl)benzyl)amino)-4-methoxyphenyl)-5,6,7,8-tetrahydronaphthalen-2-ol dihydrochloride in the treatment of vasomotor symptoms in postmenopausal women. […] All efficacy endpoints were to be analyzed for the ITT and PP populations, with the exception of the drug levels (analyzed for the ITT population only). […]
Where a name gives a salt, the structure may show the parent alone.
observation type: concentration at 29 day (ng/mL)

[
  {
    "compound": "CCNCCc1ccc(CN(CC)c2cc(OC)ccc2[C@@H]2CCc3cc(O)ccc3C2)cc1 [drug, dihydrochloride]",
    "endpoint value": 3.23
  }
]
